- STUDY TARGET: UniProt:P14416
- Sequence (P14416 whole entry): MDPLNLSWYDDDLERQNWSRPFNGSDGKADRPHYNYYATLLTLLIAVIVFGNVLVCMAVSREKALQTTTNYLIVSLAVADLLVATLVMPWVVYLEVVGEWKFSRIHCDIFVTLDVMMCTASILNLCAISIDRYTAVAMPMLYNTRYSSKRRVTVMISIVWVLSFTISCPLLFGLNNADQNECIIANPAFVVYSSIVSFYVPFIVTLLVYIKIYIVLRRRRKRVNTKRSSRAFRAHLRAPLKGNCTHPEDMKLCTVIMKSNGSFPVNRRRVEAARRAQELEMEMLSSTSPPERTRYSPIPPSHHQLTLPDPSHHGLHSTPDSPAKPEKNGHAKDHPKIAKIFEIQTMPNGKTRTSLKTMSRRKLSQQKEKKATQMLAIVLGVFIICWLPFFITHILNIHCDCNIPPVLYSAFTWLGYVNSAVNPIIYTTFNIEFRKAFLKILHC
- TEST DETAILS: cell-based;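 note: agonist activity at human DRD2 in DRD2-expressing cells, read as intracellular calcium mobilization with a FLIPR Calcium 4 fluorescent dye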
- Design: host or cells: 'Cells expressing hDRD2'
- CONDITION DETAILS: read-out: hDRD2 %Emax ± SEM
Numbered stars: 1 amine (or outer) side, 2 acyl side, 3 side chain; on linkers, the order of the positions; unused ones are H or OH. Bridge positions count the residues as written; N and C are the ends. Square brackets hold non-standard residues; d marks the D form. Peptide text beside a SMILES is read from it. X1 = CN1C[C@H](CSCCN(CCSC[C@@H]2C[C@@H]3c4cccc5[nH]cc(c45)C[C@H]3N(C)C2)[C@H](CCCCN[*:2])C(=O)[*:1])C[C@@H]2c3cccc4[nH]cc(c34)C[C@H]21; 4Pal = N[C@@H](Cc1ccncc1)C(=O)O
PARAMETER MEASURED: Emax (%)
Respond with the bare value in %.

Which Emax value belongs to C[C@@H](O)[C@@H]1NC(=O)[C@H](CCCCN)NC(=O)[C@@H](Cc2c[nH]c3ccccc23)NC(=O)[C@H](Cc2ccncc2)NC(=O)[C@H](Cc2ccccc2)NC(=O)[C@H](CCCNC(=N)N)NC(=O)[C@H](N(CCSC[C@@H]2C[C@@H]3c4cccc5[nH]cc(c45)C[C@H]3N(C)C2)CCSC[C@@H]2C[C@@H]3c4cccc5[nH]cc(c45)C[C@H]3N(C)C2)CCCCNC(=O)[C@H](Cc2ccc(O)cc2)NC1=O [Compound 35] (RF[4Pal][dW]KTY; linker N-C via X1) ? 103

Which Emax value belongs to C[C@@H](O)[C@@H]1NC(=O)[C@H](CCCCN)NC(=O)[C@@H](Cc2c[nH]c3ccccc23)NC(=O)[C@H](Cc2ccccc2)NC(=O)[C@H](Cc2ccccc2)NC(=O)[C@H](CCCNC(=N)N)NC(=O)[C@H](NC[C@H](CCCCNC(=O)CSC[C@@H]2C[C@@H]3c4cccc5[nH]cc(c45)C[C@H]3N(C)C2)NC(=O)CSC[C@@H]2C[C@@H]3c4cccc5[nH]cc(c45)C[C@H]3N(C)C2)CCCCNC(=O)[C@H](Cc2ccc(F)cc2)NC1=O [Compound 47] ? 92.5
